# Experiment notes: PSAC antagonists in infected red cells, primary screen, cell-based, P. falciparum Indochina, OD700, 2 h (AID 1155);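 further: lysis reports solute entry through the parasite surface anion channel PSAC; channel blockers reduce lysis of infected cells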
# Test context: P. falciparum Indochina infected erythrocytes, osmotic lysis OD700, called active from +8 up or from −8 down
Calls of active or inactive are those of the source.
Choose one outcome from this list and give only that: label 1 (active), label 0 (inactive)

Reference set, count: 10
COCCOC(=O)N1C(=O)[C@@]2(c3cc(C#CC4=CCCCC4)ccc31)[C@H](C(=O)NC[C@H](O)c1ccccc1)[C@H]1C(=O)O[C@H](c3ccccc3)[C@H](c3ccccc3)N1[C@@H]2c1ccc(O)cc1: label 0
C=CCC(OC(C)=O)[C@@H]1[C@@H](N(Cc2cccc3ccccc23)C(=O)c2ccc(C)cc2)c2cc(OCCCO)ccc2N1C(=O)Cc1ccc(OC)cc1 (some centres not stated): label 0
COCCOC(=O)N1C(=O)[C@@]2(c3cc(C#CCNC(N)=O)ccc31)[C@H](c1ccc(O)cc1)N1[C@H](c3ccccc3)[C@H](c3ccccc3)OC(=O)[C@H]1[C@@H]2C(=O)NC[C@H](O)c1ccccc1: label 0
COc1ccc(C(O)C2C=CC3C(=O)N(c4ccccc4)C(=O)C3N2Nc2ccc([N+](=O)[O-])cc2)cc1OCc1ccccc1 (configuration not stated): label 0
[N-]=[N+]=NCc1ccccc1[C@H]1OC(c2ccc(OCCCO)cc2)=N[C@@]1(CCS(=O)(=O)c1ccccc1)C(=O)N1CCOCC1: label 1
COC(=O)[C@@]1(Cc2ccc(OC)cc2)[C@H]2c3cc(C(=O)N(C)C)n(Cc4c(OC)[nH]cc(C)c4=O)c3C[C@H]2CN1C(=O)c1ccccc1: label 0
O=C1O[C@H](c2ccccc2)[C@H](c2ccccc2)N2[C@H]1[C@@H](C(=O)O)[C@]1(C(=O)Nc3ccc(C#CC4=CCCCC4)cc31)[C@H]2c1ccc(OCCO)cc1: label 0
COc1ccc(C#Cc2ccc3c(c2)[C@]2(C(=O)N3)[C@H](c3ccc(O)cc3)N3[C@H](c4ccccc4)[C@H](c4ccccc4)OC(=O)[C@H]3[C@@H]2C(=O)NC[C@H](O)c2ccccc2)cc1: label 0
CCOC(=O)[C@H]1C/C=C/C[C@H](C(=O)OCC)C(=O)O[C@H]2[C@@H](OC)O[C@H](CO)[C@@H](OC(=O)Nc3ccc4c(c3)OCO4)[C@@H]2OC1=O: label 0
COCCOC(=O)N1C(=O)[C@@]2(c3ccccc31)[C@H](C(=O)Nc1nc3ccccc3s1)[C@H]1C(=O)O[C@H](c3ccccc3)[C@H](c3ccccc3)N1[C@@H]2c1ccc(OCCO)cc1: label 0

Assay outcome for CN(C)CCCCCCNC(=O)[C@H]1C[C@H]2C(=O)N[C@@H](CCCCN)C(=O)N2[C@H]1c1ccc(O)cc1 : what was it?
label 0

Assay outcome for C=C[C@H](C)[C@@H](O)c1ccc(O)c2ccccc12 : what was it?
label 0

----------
# Experiment notes: Plasmodium falciparum growth inhibition, primary screen, strain 3D7, DAPI fluorescence, 100 nL (AID 1184);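 further: parasites grown inside human red blood cells in medium with human serum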
# Test context: P. falciparum 3D7 growth, 3 d, higher = more signal
Measured property: z-score
Answer with a bare number; do not write a unit.

Cc1ccc([C@H]2[C@H](C(=O)O)[C@H](Sc3ccccc3)[C@@H](C(C)C)N2S(=O)(=O)c2ccc(C)cc2)cc1: -0.619
COc1ccc(C#Cc2ccc3c(c2)[C@]2(C(=O)N3)[C@H](c3ccc(O)cc3)N3[C@H](c4ccccc4)[C@H](c4ccccc4)OC(=O)[C@H]3[C@@H]2C(=O)NC[C@H](O)c2ccccc2)cc1: -1.05

Entry under review: COc1ccc(C(O)C2C=CC3C(=O)N(c4ccccc4)C(=O)C3N2Nc2ccc([N+](=O)[O-])cc2)cc1OCc1ccccc1 (configuration not stated) . Reported z-score?
-0.303

Entry under review: Cc1cc(C)cc(N2C(=O)CS(=O)(=O)C2c2cccc([N+](=O)[O-])c2)c1 (configuration not stated) . Reported z-score?
0.494

Entry under review: C=C[C@H](C)[C@@H](O)c1ccc(O)c2ccccc12 . Reported z-score?
-0.935

Entry under review: O=C1O[C@H](c2ccccc2)[C@H](c2ccccc2)N2[C@H]1[C@@H](C(=O)N1CCN(c3ncccn3)CC1)[C@]1(C(=O)Nc3ccccc31)[C@H]2c1ccc(OCCO)cc1 . Reported z-score?
-2.39

Entry under review: O=C(O)[C@H]1C[C@H]2C(=O)NCC(=O)N2[C@H]1c1ccc(O)cc1 . Reported z-score?
0.137

src = PubChem BioAssay
